We begin with a simple list: items and their reported log10 of IC50.
System: Voltage-dependent T-type calcium channel subunit alpha-1I (Homo sapiens, UniProt Q9P0X4)
Sequence (Q9P0X4 whole entry): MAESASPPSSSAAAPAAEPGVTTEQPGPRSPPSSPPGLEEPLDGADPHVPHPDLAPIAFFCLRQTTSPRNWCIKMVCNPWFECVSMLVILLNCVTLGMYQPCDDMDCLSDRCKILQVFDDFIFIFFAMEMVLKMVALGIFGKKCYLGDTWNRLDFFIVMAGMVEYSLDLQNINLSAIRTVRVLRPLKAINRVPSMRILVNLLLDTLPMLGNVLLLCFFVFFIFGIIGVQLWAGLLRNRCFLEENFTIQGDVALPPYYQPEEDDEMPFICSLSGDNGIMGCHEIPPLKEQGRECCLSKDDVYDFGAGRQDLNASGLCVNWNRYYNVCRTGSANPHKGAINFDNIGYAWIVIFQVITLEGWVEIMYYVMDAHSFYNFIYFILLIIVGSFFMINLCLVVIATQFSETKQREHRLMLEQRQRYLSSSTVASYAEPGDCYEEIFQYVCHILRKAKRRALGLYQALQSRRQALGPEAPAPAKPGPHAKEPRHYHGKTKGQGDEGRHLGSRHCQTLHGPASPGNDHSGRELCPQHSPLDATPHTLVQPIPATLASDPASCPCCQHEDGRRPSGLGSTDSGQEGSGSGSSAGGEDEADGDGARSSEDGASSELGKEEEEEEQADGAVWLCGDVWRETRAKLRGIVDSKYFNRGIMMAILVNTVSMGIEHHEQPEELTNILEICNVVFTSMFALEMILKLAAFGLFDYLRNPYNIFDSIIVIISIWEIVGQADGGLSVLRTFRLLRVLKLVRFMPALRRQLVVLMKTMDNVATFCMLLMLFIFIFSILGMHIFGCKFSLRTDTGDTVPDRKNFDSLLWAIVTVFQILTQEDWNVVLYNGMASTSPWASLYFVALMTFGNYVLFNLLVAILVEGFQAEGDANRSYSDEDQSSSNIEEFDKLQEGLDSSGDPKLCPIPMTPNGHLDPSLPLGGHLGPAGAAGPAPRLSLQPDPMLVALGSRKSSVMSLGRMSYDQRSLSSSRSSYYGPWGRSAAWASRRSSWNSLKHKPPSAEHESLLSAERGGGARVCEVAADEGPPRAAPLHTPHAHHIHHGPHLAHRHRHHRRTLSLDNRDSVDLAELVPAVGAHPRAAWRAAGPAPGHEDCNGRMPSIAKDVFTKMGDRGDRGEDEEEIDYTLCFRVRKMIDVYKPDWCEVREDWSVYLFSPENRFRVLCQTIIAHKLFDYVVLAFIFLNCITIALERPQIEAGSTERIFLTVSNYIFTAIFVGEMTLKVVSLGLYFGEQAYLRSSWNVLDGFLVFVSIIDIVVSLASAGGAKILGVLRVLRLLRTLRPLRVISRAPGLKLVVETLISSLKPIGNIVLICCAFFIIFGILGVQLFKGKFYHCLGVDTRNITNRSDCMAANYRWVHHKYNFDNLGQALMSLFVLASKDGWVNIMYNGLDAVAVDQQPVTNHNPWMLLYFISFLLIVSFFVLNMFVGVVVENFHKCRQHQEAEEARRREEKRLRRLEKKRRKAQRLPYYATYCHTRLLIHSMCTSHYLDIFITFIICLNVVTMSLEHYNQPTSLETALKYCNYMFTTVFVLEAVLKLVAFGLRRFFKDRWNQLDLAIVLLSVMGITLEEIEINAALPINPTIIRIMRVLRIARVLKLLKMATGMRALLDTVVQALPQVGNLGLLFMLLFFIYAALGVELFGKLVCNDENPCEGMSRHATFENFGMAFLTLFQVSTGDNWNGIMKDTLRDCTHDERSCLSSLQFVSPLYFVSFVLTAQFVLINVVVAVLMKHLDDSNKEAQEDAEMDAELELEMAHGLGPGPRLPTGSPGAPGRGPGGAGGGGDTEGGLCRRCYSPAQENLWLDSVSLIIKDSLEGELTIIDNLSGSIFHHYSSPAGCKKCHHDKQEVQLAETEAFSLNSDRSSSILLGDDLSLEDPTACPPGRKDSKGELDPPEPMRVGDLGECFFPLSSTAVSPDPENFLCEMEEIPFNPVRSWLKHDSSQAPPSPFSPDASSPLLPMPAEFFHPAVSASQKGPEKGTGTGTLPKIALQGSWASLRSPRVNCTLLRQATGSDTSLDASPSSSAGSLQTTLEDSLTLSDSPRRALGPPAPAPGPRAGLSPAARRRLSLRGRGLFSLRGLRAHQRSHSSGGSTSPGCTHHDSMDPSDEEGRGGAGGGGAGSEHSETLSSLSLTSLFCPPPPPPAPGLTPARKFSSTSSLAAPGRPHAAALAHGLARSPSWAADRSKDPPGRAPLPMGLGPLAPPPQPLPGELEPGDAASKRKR
Assay Summary: Channel blocking activity at recombinant human CaV 3.3 channel expressed in HEK293 cells assessed as inhibition of Ca2+ flux preincubated for 3 mins followed by CaCl2 addition by fluo-4 dye-based FLIPR assay
Metric: log10 of IC50 (log10 of the value in nM)

Compound	Value Reported
COc1ccc(CNC(=O)N2[C@H](C)CN(CCC(C)C)c3cnccc3[C@@H]2C)cc1 (racemic)	1.40
Cc1ccc2c(n1)N(Cc1ccccc1)C[C@@H](C)N(C(=O)NCc1ccccc1)[C@H]2C (racemic)	1.52
C[C@@H]1CN(Cc2ccccc2)c2ccccc2[C@H](C)N1C(=O)N(C)Cc1ccccc1 (racemic)	2.95
C[C@@H]1CN(Cc2ccccc2)c2cncc(F)c2[C@H](C)N1C(=O)Nc1cccnc1 (racemic)	2.12
C[C@@H]1CN(Cc2ccccc2)c2ccccc2[C@H](C)N1C(=O)OCc1ccccc1 (racemic)	2.67
C[C@@H]1CN(Cc2ccccc2)c2cc(OCC(F)(F)F)ccc2[C@H](C)N1C(=O)Nc1cccnc1 (racemic)	3.55
C[C@@H]1CN(Cc2ccccc2)c2nc(Cl)ccc2[C@H](C)N1C(=O)NCc1ccccc1 (racemic)	1.34
C[C@@H]1CN(Cc2ccccc2)c2c(F)cccc2[C@H](C)N1C(=O)Nc1cccnc1 (racemic)	1.23
C[C@@H]1CN(Cc2ccccc2)c2ccc(F)cc2[C@H](C)N1C(=O)Nc1cccnc1 (racemic)	0.90
C[C@@H]1CN(Cc2ccccc2)c2cc(C#N)ccc2[C@H](C)N1C(=O)Nc1cccnc1 (racemic)	2.49

----------
System: Voltage-dependent T-type calcium channel subunit alpha-1H (Homo sapiens, UniProt O95180)
Sequence (O95180 whole entry): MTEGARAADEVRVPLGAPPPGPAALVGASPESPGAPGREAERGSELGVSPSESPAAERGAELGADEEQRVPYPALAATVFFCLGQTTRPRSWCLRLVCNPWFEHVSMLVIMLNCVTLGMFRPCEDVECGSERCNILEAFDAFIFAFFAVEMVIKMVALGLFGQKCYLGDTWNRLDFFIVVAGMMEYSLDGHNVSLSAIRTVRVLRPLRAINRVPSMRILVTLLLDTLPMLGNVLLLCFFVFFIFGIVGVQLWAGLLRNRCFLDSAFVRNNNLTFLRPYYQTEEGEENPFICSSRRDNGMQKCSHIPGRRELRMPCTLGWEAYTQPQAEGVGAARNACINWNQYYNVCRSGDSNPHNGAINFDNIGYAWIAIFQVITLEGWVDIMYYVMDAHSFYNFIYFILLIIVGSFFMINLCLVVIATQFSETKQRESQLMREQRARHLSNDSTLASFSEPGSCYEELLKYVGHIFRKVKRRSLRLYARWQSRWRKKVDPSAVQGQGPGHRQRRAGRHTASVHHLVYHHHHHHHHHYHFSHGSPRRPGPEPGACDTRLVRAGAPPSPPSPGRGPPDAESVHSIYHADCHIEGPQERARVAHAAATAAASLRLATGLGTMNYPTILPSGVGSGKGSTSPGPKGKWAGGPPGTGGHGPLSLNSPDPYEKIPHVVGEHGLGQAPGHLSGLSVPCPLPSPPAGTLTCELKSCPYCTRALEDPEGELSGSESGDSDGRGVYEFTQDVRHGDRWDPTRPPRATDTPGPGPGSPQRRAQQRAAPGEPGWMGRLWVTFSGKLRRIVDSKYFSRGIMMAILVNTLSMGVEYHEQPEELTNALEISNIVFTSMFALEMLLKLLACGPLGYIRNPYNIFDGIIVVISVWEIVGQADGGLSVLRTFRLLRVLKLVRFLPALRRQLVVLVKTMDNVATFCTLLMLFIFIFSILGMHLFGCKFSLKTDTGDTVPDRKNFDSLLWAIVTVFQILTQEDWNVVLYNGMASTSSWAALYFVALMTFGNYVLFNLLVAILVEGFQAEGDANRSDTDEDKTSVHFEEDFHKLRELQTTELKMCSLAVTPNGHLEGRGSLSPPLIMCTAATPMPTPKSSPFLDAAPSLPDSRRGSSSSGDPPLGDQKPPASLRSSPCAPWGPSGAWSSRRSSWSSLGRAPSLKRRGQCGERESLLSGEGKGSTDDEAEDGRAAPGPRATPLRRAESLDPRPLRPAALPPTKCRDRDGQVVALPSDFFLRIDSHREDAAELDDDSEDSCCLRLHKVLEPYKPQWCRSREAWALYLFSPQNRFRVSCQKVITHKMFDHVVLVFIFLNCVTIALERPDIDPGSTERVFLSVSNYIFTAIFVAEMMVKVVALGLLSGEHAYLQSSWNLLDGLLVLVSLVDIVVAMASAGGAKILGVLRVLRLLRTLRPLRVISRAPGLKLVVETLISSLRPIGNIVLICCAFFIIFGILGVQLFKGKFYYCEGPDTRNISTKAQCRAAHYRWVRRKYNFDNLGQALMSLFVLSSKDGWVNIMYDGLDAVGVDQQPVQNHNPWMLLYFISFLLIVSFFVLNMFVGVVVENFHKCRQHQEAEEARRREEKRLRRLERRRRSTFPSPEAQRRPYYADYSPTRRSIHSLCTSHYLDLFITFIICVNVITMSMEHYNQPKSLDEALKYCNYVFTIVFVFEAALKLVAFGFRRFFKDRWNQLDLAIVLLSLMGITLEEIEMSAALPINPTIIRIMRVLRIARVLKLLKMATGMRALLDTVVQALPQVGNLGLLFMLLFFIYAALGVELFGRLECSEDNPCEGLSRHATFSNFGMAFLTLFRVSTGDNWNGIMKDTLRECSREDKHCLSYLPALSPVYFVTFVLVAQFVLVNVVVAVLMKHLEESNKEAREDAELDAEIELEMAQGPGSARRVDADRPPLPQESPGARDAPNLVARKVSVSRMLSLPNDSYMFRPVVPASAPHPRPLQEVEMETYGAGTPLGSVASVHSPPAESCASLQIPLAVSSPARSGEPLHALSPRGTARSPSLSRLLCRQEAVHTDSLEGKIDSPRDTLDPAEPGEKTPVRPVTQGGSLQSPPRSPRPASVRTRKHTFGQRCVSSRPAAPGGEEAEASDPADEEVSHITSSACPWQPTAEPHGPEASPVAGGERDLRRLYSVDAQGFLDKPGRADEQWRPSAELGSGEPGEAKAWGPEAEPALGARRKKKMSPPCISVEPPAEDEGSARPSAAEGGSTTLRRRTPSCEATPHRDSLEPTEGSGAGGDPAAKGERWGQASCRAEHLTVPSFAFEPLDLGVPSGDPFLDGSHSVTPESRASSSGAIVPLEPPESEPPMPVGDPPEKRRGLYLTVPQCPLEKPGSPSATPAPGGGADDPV
Assay Summary: Channel blocking activity at recombinant human CaV 3.2 channel expressed in HEK293 cells assessed as inhibition of Ca2+ flux preincubated for 3 mins followed by CaCl2 addition by fluo-4 dye-based FLIPR assay
pIC50: −log10 of the molar value.
Metric: pIC50

Compound	System	Value Reported
C[C@@H]1CN(Cc2ccccc2)c2cncnc2[C@H](C)N1C(=O)NCc1ccccc1 (racemic)	Voltage-dependent T-type calcium channel subunit alpha-1H (Homo sapiens, UniProt O95180)	< 5.19
C[C@@H]1CN(C(=O)c2ccccc2)c2ccccc2[C@H](C)N1C(=O)NCc1ccccc1 (racemic)	Voltage-dependent T-type calcium channel subunit alpha-1H (Homo sapiens, UniProt O95180)	< 4.94
C[C@@H]1CN(Cc2ccccc2)c2ccccc2[C@H](C)N1C(=O)CN1CCOCC1 (racemic)	Voltage-dependent T-type calcium channel subunit alpha-1H (Homo sapiens, UniProt O95180)	7.29
